Would you mind telling me the reported IC50 of each entry?
Molecular target: UniProtKB Q7ZJM1
Sequence (Q7ZJM1 whole entry): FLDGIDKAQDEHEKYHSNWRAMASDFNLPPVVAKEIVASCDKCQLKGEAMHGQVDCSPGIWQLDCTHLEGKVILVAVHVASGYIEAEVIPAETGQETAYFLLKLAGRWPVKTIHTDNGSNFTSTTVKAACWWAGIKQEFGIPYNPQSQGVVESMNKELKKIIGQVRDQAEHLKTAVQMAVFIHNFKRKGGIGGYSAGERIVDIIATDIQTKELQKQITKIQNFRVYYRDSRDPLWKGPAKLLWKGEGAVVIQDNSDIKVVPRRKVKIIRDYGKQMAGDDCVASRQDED
Assay: Inhibition of wild type HIV-1 integrase 3' processing activity after 30 mins
Positions of bridges follow the written chain, without caps; N, C: chain ends. Non-standard residues stand in square brackets, D forms with d. Residues, ends and D or L forms follow the SMILES beside them. S5 = C=CCCC[C@](C)(N)C(=O)O
Numbers only, in µM.

[[record]]
molecule = "CC(C)C[C@@H]1NC(=O)[C@H](CCCCN)NC(=O)[C@H](CC(C)C)NC(=O)[C@@](C)(NC(=O)[C@H](Cc2ccccc2)NC(=O)[C@H](Cc2ccc(O)cc2)NC(=O)[C@H](C)NC(=O)[C@@H](N)[C@@H](C)O)CCC/C=C\\CCC[C@@](C)(C(=O)NCC(=O)N[C@@H](CCCNC(=N)N)C(=O)N[C@@H](Cc2c[nH]c3ccccc23)C(=O)O)NC1=O (H-TAYF[S5]LKL[S5]GRW-OH; staple (Z) 5-9)"
readout = "IC50"
observed_value = 9


Turning to the following molecule.
Challenge: Give IC50 for the following molecule: CC[C@H](C)[C@@H]1NC(=O)[C@H](CC(C)C)NC(=O)[C@@](C)(NC(=O)[C@H](Cc2ccccc2)NC(=O)[C@H](Cc2ccc(O)cc2)NC(=O)[C@H](C)NC(=O)[C@@H](N)[C@@H](C)O)CCC/C=C\CCC[C@@](C)(C(=O)NCC(=O)N[C@@H](CCCNC(=N)N)C(=O)N[C@@H](Cc2c[nH]c3ccccc23)C(=O)O)NC(=O)[C@H](CC(C)C)NC1=O (H-TAYF[S5]LIL[S5]GRW-OH; staple (Z) 5-9)
Response given: 22
